Hi there, I'd appreciate the recorded pKd for every entry that follows.
target-under-test: T1, biotinylated ADDL (bADDL) (UniProt P05067 672-713, N-terminal biotin)
T1 construct: domain: Aβ1-42; Soluble oligomers of Aβ1-42; also called bADDLs; biotinylated high molecular weight ADDL
procedure-details: BIACORE, Fab fragment against bADDL
The meaning of pKd here: minus log10 of the concentration in molar units.

[Q] What measured pKd goes with 4b-A7 Fab (Fab, V domains shown) VH: QVTLKESGPALVKPTQTLTLTCTLSGFSLSTSGMGVGWIRQPPGKALEWLAHIWWDDDKSYNPSLKSRLTISKDTSKNQVVLTMTNMDPVDTATYYCARRQLGKLALDAMDYWGQGTTVTVSS VL: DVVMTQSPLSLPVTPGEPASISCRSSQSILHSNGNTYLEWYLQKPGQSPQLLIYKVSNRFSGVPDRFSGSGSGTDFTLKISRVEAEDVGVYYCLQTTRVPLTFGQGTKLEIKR ?
[A] 9.42

[Q] Could you tell me which pKd is on file for 20C28B Fab (Fab, V domains shown) VH: QVTLKESGPALVKPTQTLTLTCTLSGFSLSTSGMGVGWIRQPPGKALEWLAHIWWDDDKSYNPSLKSRLTISKDTSKNQVVLTMTNMDPVDTATYYCARRQLGLRSIDAMDYWGQGTTVTVSS VL: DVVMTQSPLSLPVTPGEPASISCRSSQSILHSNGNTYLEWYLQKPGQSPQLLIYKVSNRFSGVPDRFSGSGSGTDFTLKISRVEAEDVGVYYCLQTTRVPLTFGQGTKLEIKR ?
[A] 8.96

[Q] Item 4b-H11 Fab (Fab, V domains shown) VH: QVTLKESGPALVKPTQTLTLTCTLSGFSLSTSGMGVGWIRQPPGKALEWLAHIWWDDDKSYNPSLKSRLTISKDTSKNQVVLTMTNMDPVDTATYYCARRQLGRRSVDAMDYWGQGTTVTVSS VL: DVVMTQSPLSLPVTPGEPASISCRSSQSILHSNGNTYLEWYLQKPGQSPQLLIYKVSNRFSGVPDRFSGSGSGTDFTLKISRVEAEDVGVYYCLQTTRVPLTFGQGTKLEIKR has what recorded pKd?
[A] 8.98

[Q] Please give the measured pKd for this binder: 4a-A3 Fab (Fab, V domains shown) VH: QVTLKESGPALVKPTQTLTLTCTLSGFSLSTSGMGVGWIRQPPGKALEWLAHIWWDDDKSYNPSLKSRLTISKDTSKNQVVLTMTNMDPVDTATYYCARRQLGTRGTDAMDYWGQGTTVTVSS VL: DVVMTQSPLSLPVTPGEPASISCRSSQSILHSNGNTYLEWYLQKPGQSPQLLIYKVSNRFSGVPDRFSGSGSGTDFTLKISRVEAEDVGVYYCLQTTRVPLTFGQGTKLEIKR
[A] 10.08

// data source = patent US20070081998A1
